Tested on: 817829-284-R-J1-PDC complex spheroids, viability
Experiment: Anticancer human tumor 817829-284-R-J1-PDC patient-derived colon adenocarcinoma cell line growth inhibition [CLK]
Conditions: second compound 1 µM; first compound 1 µM; hits give low values
Hi! Could you tag entries with viability, T/C below 0.09% as true (1), and those at or above as false (0)? Much appreciated.

Look over these answered cases.
# compound, system-under-test, class-assignment
measured = [
    ("COc1cccc2c1C(=O)c1c(O)c3c(c(O)c1C2=O)CC(O)(C(=O)CO)CC3OC1CC(N)C(O)C(C)O1 (centres undefined) + CN1CCN(c2cc(C(=O)Nc3cc4cc(-c5cnn(C)c5)ccc4cn3)ccn2)CC1", "817829-284-R-J1-PDC complex spheroids, viability", "false (0)"),
    ("Nc1ccn(C2OC(CO)C(O)C2(F)F)c(=O)n1 (centres undefined) + CN1CCN(c2cc(C(=O)Nc3cc4cc(-c5cnn(C)c5)ccc4cn3)ccn2)CC1", "817829-284-R-J1-PDC complex spheroids, viability", "true (1)"),
    ("C#Cc1c(F)ccc2cc(O)cc(-c3ncc4c(N5CC6CCC(C5)N6)nc(OCC56CCCN5CC(F)C6)nc4c3F)c12 (centres undefined) + CNC(=O)c1ccc(Nc2nc(OC3CCCC3)c3c(-c4ccc5nc(C)oc5c4)c[nH]c3n2)c(OC)c1", "817829-284-R-J1-PDC complex spheroids, viability", "false (0)"),
    ("CC(Nc1ccc2c(c1)OCCn1cc(N3C(=O)OCC3C(F)F)nc1-2)C(N)=O (centres undefined) + CNC(=O)c1ccc(Nc2nc(OC3CCCC3)c3c(-c4ccc5nc(C)oc5c4)c[nH]c3n2)c(OC)c1", "817829-284-R-J1-PDC complex spheroids, viability", "false (0)"),
    ("CCN1CCN(Cc2ccc(Nc3ncc(F)c(-c4cc(F)c5nc(C)n(C(C)C)c5c4)n3)nc2)CC1 + CN1CCN(c2cc(C(=O)Nc3cc4cc(-c5cnn(C)c5)ccc4cn3)ccn2)CC1", "817829-284-R-J1-PDC complex spheroids, viability", "false (0)"),
]

Now consider the entry below.
Lookup: Dear reviewer, please state whether Nc1ccccc1NC(=O)c1ccc(CNC(=O)OCc2cccnc2)cc1 + CN1CCN(c2cc(C(=O)Nc3cc4cc(-c5cnn(C)c5)ccc4cn3)ccn2)CC1 has viability, T/C strictly beneath 0.09%.
Found: false (0)

====

System: 817829-284-R-J1-PDC complex spheroids, viability
Experiment: Anticancer human tumor 817829-284-R-J1-PDC cell line growth inhibition [CLK]; active = viability on the fitted dose curve at most 10% of control; inactive = the rest;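 also: spheroids exposed to the agents for seven days before readout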
Details: second compound 0.0316 µM; first compound 0.316 µM
Returns: one label drawn from active, inactive

The following compounds have reported results that may help.
# compound, class-assignment
measured = [
    ("C#Cc1c(F)ccc2cc(O)cc(-c3ncc4c(N5CC6CCC(C5)N6)nc(OCC56CCCN5CC(F)C6)nc4c3F)c12 (stereo not drawn) + CN1CCN(c2cc(C(=O)Nc3cc4cc(-c5cnn(C)c5)ccc4cn3)ccn2)CC1", "inactive"),
    ("O=c1[nH]cc(F)c(=O)[nH]1 + CN1CCN(c2cc(C(=O)Nc3cc4cc(-c5cnn(C)c5)ccc4cn3)ccn2)CC1", "inactive"),
    ("CC1(C)CCC(CN2CCN(c3ccc(C(=O)NS(=O)(=O)c4ccc(NCC5CCOCC5)c([N+](=O)[O-])c4)c(Oc4cnc5[nH]ccc5c4)c3)CC2)=C(c2ccc(Cl)cc2)C1 + CN1CCN(c2cc(C(=O)Nc3cc4cc(-c5cnn(C)c5)ccc4cn3)ccn2)CC1", "inactive"),
    ("CC(Nc1ccc2c(c1)OCCn1cc(N3C(=O)OCC3C(F)F)nc1-2)C(N)=O (stereo not drawn) + CN1CCN(c2cc(C(=O)Nc3cc4cc(-c5cnn(C)c5)ccc4cn3)ccn2)CC1", "inactive"),
    ("Nc1ccn(C2OC(CO)C(O)C2(F)F)c(=O)n1 (stereo not drawn) + CN1CCN(c2cc(C(=O)Nc3cc4cc(-c5cnn(C)c5)ccc4cn3)ccn2)CC1", "active"),
    ("C=CC(=O)N1CCN(c2nc(=O)n(-c3c(C)ccnc3C(C)C)c3nc(-c4c(O)cccc4F)c(F)cc23)C(C)C1 (stereo not drawn) + CN1CCN(c2cc(C(=O)Nc3cc4cc(-c5cnn(C)c5)ccc4cn3)ccn2)CC1", "inactive"),
]

Lookup: Tell me the assay call for C=C(F)C(=O)N1CCN(c2nc(OCC3CCCN3C)nc3c2CCN(c2cccc4cccc(Cl)c24)C3)CC1CC#N (stereo not drawn) + CNC(=O)c1ccc(Nc2nc(OC3CCCC3)c3c(-c4ccc5nc(C)oc5c4)c[nH]c3n2)c(OC)c1 please.
Found: inactive

Lookup: Field: outcome | Entry: Nc1ccccc1NC(=O)c1ccc(CNC(=O)OCc2cccnc2)cc1 + CN1CCN(c2cc(C(=O)Nc3cc4cc(-c5cnn(C)c5)ccc4cn3)ccn2)CC1
Found: inactive

====

System: 817829-284-R-J1-PDC complex spheroids, viability
Assay: Anticancer human tumor 817829-284-R-J1-PDC cell line growth inhibition [CLK];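 also: spheroids exposed to the agents for seven days before readout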
Conditions: second compound 1 µM; first compound 1 µM; hits give low values
measure: viability, T/C (%)
Answer format: numeric, % implied, no suffix.

As a guide, the following entries are already answered.
# compound, system-under-test, viability, T/C / %
rows = [
    ("CC1(C)CCC(CN2CCN(c3ccc(C(=O)NS(=O)(=O)c4ccc(NCC5CCOCC5)c([N+](=O)[O-])c4)c(Oc4cnc5[nH]ccc5c4)c3)CC2)=C(c2ccc(Cl)cc2)C1 + CN1CCN(c2cc(C(=O)Nc3cc4cc(-c5cnn(C)c5)ccc4cn3)ccn2)CC1", "817829-284-R-J1-PDC complex spheroids, viability", 0.09),
    ("O=C(c1cc(Cc2n[nH]c(=O)c3ccccc23)ccc1F)N1CCN(C(=O)C2CC2)CC1 + CN1CCN(c2cc(C(=O)Nc3cc4cc(-c5cnn(C)c5)ccc4cn3)ccn2)CC1", "817829-284-R-J1-PDC complex spheroids, viability", 0.09),
]

817829-284-R-J1-PDC complex spheroids, viability assay, compound CCCS(=O)(=O)Nc1ccc(F)c(C(=O)c2c[nH]c3ncc(-c4ccc(Cl)cc4)cc23)c1F + CN1CCN(c2cc(C(=O)Nc3cc4cc(-c5cnn(C)c5)ccc4cn3)ccn2)CC1 , recorded viability, T/C = 0.09
